procedure-details: Pharmacokinetics in human (PDX-008, noncompartmental)
Format: in vivo
assay-context: both sexes, human, plasma, intravenous, 30 mg/m2, human, C1D1, 30 mg/m^2; range of the mean for males and females and for PDX-10a and PDX-10b; read-out: CLtot
measured-quantity: clearance

// clearance lookup, compound = C#CC[C@H](Cc1cnc2nc(N)nc(N)c2n1)c1ccc(C(=O)N[C@@H](CCC(=O)O)C(=O)O)cc1 (single isomer, unassigned) [PDX-10b] , result: 191 to 417 mL/min

// clearance lookup, compound = C#CC[C@@H](Cc1cnc2nc(N)nc(N)c2n1)c1ccc(C(=O)N[C@@H](CCC(=O)O)C(=O)O)cc1 (single isomer, unassigned) [PDX-10a] , result: 191 to 417 mL/min

----------
Each entry below lists one item and its recorded Vd value.
procedure-details: Pharmacokinetics in human (PDX-008, noncompartmental)
Assay type: in vivo
assay-context: both sexes, human, plasma, intravenous, 0.81 mg/kg, human, C1D1; calculated using average BW 85 kg; read-out: Vdss relative to BW

• C#CC[C@H](Cc1cnc2nc(N)nc(N)c2n1)c1ccc(C(=O)N[C@@H](CCC(=O)O)C(=O)O)cc1 (single isomer, unassigned) [PDX-10b] = 0.4 to 1.2 L/kg

// Vd lookup, compound = C#CC[C@@H](Cc1cnc2nc(N)nc(N)c2n1)c1ccc(C(=O)N[C@@H](CCC(=O)O)C(=O)O)cc1 (single isomer, unassigned) [PDX-10a] , result: 0.4 to 1.2 L/kg

----------
procedure-details: Pharmacokinetics in rat (PDX-T-07034-R)
Type: in vivo
assay-context: both sexes, plasma, 5 mg/kg, Day 1, 5 mg/kg (30 mg/m^2), racemic mixture, males and females (mean)
measured-quantity: Cmax (µg/mL)
The answer is to be given in µg/mL; state only the numeric part.

// Cmax lookup, compound = C#CCC(Cc1cnc2nc(N)nc(N)c2n1)c1ccc(C(=O)N[C@@H](CCC(=O)O)C(=O)O)cc1 (mixture of isomers) [PDX, reference compound] , result: 19.2

----------
procedure-details: Pharmacokinetics in rat (PDX-T-07034-R)
Type: in vivo
assay-context: both sexes, plasma, 5 mg/kg, Day 1, 5 mg/kg (30 mg/m^2), racemic mixture, males and females (mean)
measured-quantity: AUC(0-inf) (ng·h/mL)
The answer is to be given in ng·h/mL; state only the numeric part.

// AUC(0-inf) lookup, molecule = C#CCC(Cc1cnc2nc(N)nc(N)c2n1)c1ccc(C(=O)N[C@@H](CCC(=O)O)C(=O)O)cc1 (mixture of isomers) [PDX, reference compound] , result: 4870

----------
procedure-details: Pharmacokinetics in dog (PDX-T-07054-D)
Type: in vivo
assay-context: both sexes, dog, plasma, 0.7 mg/kg, dog, Day 281, 0.7 mg/kg (14 mg/m^2); racemic mixture, males and females (mean)
measured-quantity: AUC(0-inf) (ng·h/mL)
The answer is to be given in ng·h/mL; state only the numeric part.

// AUC(0-inf) lookup, compound = C#CCC(Cc1cnc2nc(N)nc(N)c2n1)c1ccc(C(=O)N[C@@H](CCC(=O)O)C(=O)O)cc1 (mixture of isomers) [PDX, reference compound] , result: 1340

----------
procedure-details: Pharmacokinetics in human (PDX-008, noncompartmental)
Type: in vivo
assay-context: both sexes, human, plasma, intravenous, 30 mg/m^2, human, C1D6 or C2D6, 30 mg/m^2 (0.81 mg/kg); racemic mixture, males and females (mean), n = 6
measured-quantity: AUC(0-inf) (ng·h/mL)
The answer is to be given in ng·h/mL; state only the numeric part.

// AUC(0-inf) lookup, compound = C#CCC(Cc1cnc2nc(N)nc(N)c2n1)c1ccc(C(=O)N[C@@H](CCC(=O)O)C(=O)O)cc1 (mixture of isomers) [PDX, reference compound] , result: 3530

----------
procedure-details: Pharmacokinetics in dog (PDX-T-07054-D)
Format: in vivo
assay-context: both sexes, dog, plasma, 0.7 mg/kg, dog, Day 1, 0.7 mg/kg (14 mg/m^2); racemic mixture, males and females (mean)
measured-quantity: AUC(0-inf) (ng·h/mL)
The answer is to be given in ng·h/mL; state only the numeric part.

// AUC(0-inf) lookup, molecule = C#CCC(Cc1cnc2nc(N)nc(N)c2n1)c1ccc(C(=O)N[C@@H](CCC(=O)O)C(=O)O)cc1 (mixture of isomers) [PDX, reference compound] , result: 1560

----------
procedure-details: Pharmacokinetics in human (PDX-008, noncompartmental)
Assay type: in vivo
assay-context: both sexes, human, plasma, intravenous, 30 mg/m2, human, C1D1, 30 mg/m^2; range of the mean for males and females and for PDX-10a and PDX-10b; read-out: t1/2 term
measured-quantity: half-life

* C#CC[C@H](Cc1cnc2nc(N)nc(N)c2n1)c1ccc(C(=O)N[C@@H](CCC(=O)O)C(=O)O)cc1 (single isomer, unassigned) [PDX-10b] | 12 to 18 h

Please look at the following molecule next.
// half-life lookup, molecule = C#CC[C@@H](Cc1cnc2nc(N)nc(N)c2n1)c1ccc(C(=O)N[C@@H](CCC(=O)O)C(=O)O)cc1 (single isomer, unassigned) [PDX-10a] , result: 12 to 18 h

----------
procedure-details: Pharmacokinetics in human (PDX-008, noncompartmental)
Assay type: in vivo
assay-context: both sexes, human, plasma, intravenous, 30 mg/m2, human, C1D1, 30 mg/m^2; range of the mean for males and females and for PDX-10a and PDX-10b; read-out: Vdss
measured-quantity: Vd

- C#CC[C@@H](Cc1cnc2nc(N)nc(N)c2n1)c1ccc(C(=O)N[C@@H](CCC(=O)O)C(=O)O)cc1 (single isomer, unassigned) [PDX-10a]: 37 to 105 L

// Vd lookup, molecule = C#CC[C@H](Cc1cnc2nc(N)nc(N)c2n1)c1ccc(C(=O)N[C@@H](CCC(=O)O)C(=O)O)cc1 (single isomer, unassigned) [PDX-10b] , result: 37 to 105 L

----------
Each entry below lists one item and its recorded clearance value.
procedure-details: Pharmacokinetics in rat (PDX-T-07034-R)
Type: in vivo
assay-context: both sexes, plasma, 5 mg/kg, Day 85, 5 mg/kg, range of the mean for males and females and for PDX-10a and PDX-10b, read-out: CLtot

• C#CC[C@H](Cc1cnc2nc(N)nc(N)c2n1)c1ccc(C(=O)N[C@@H](CCC(=O)O)C(=O)O)cc1 (single isomer, unassigned) [PDX-10b] = 3.4 to 3.9 mL/min

Please look at the following compound next.
// clearance lookup, compound = C#CC[C@@H](Cc1cnc2nc(N)nc(N)c2n1)c1ccc(C(=O)N[C@@H](CCC(=O)O)C(=O)O)cc1 (single isomer, unassigned) [PDX-10a] , result: 3.4 to 3.9 mL/min
